Test system: HCoV-229E
Assay: microbe, parasite or virus in culture
Type: cell-based
Settings: Human coronavirus 229E, PBMC, 24 h
quantity.measured: pEC50
# pEC50: negative log10 of molar concentration; output just the value

Inquiry: Entry under review: COC(=O)[C@H]1[C@@H](O)[C@@]2(O)c3c(OC)cc(O[C@@H]4O[C@@H]([C@H](O)CO)CO[C@H]4OC)cc3O[C@@]2(c2ccc(OC)cc2)[C@@H]1c1ccccc1 . Reported pEC50?
Reply text: 8.55

* * *

Assay: Cell toxicity, MTT assay
Conditions: human, PBMCs
quantity.measured: CC50 at 24 h

Inquiry: Entry under review: COC(=O)[C@H]1[C@@H](O)[C@@]2(O)c3c(OC)cc(O[C@@H]4O[C@@H]([C@H](O)CO)CO[C@H]4OC)cc3O[C@@]2(c2ccc(OC)cc2)[C@@H]1c1ccccc1 . Reported CC50 at 24 h?
Reply text: > 1000 nM
